Reference for the values: paper PMC2756588

Target Of Assay: T1, Cdc25, P04821
T1 sequence (P04821 50-136, looked up): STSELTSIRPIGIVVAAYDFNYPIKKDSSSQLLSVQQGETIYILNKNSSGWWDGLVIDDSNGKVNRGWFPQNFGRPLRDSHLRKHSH
Assay Text: SPOT array
Study Conditions: median of control spots 969

>  <Binder>
RKLRTVPGVPLIHLT

>  <SPOT intensity>
0

$$$$
>  <Binder>
IKTRSVPKIPSIESV

>  <SPOT intensity>
2

$$$$
>  <Binder>
RRASLFPRDPKRLRP

>  <SPOT intensity>
148

$$$$
